System: HCT-116 colon
Assay: NCI-60 one-dose screen, 48 h
Settings: 10 µM unless noted
The panel holds about 83,000 compounds, 20% with a hit somewhere; the sample as a whole holds those more often. The source made the active and inactive calls. Rule for the calls: active = growth percent below 10; inactive = the rest.
Outcome codes: active, inactive

INSERT INTO results (compound, cat) VALUES
  ('COC1(OC)C2(Cl)C=C(c3ccccc3)C1(Cl)C(Cl)=C2Cl (configuration not stated)', 'inactive'),
  ('O=C(CCc1nnc2sc(-c3ccccc3)nn12)c1nc2ccccc2[nH]1', 'inactive'),
  ('COc1ncc(F)c(OC)n1', 'inactive'),
  ('Clc1ccc(C2=Nc3cccc4cccc(c34)N2)cc1Cl', 'inactive'),
  ('CCCCCCCCCCCC(=O)[O][Sn]([CH2]CCC)([CH2]CCC)[CH2]CCC', 'active'),
  ('Cc1c(C(=O)Nc2nc(-c3ccccc3)cs2)nnn1-c1ccccc1Br', 'inactive'),
  ('CC(C)OC1=C(Cl)C(=O)c2ccccc2C1=O', 'inactive'),
  ('COc1cc(/C=N/NC(=O)c2cnn3c2NC(c2ccccc2)C3)cc(OC)c1OC (configuration not stated)', 'inactive'),
  ('OC[C@@H](O)[C@@H](O)CO', 'inactive'),
  ('COC(=O)c1c2c(c(C)[n+]([O-])c1C)C(=O)C=C(NCc1cccc(Cl)c1)C2=O', 'active'),
  ('CCOc1ccc(/C=N\N2CCCCCC2)cc1OCC', 'inactive'),
  ('O=c1c2c(=NCCN3CCCC3)cc3c(=O)n(CCCN4CCOCC4)c(=O)c4ccc(c(O)n1CCCN1CCOCC1)c2c4-3', 'active'),
  ('CN1CCC(OC2c3ccccc3CCc3ccccc32)CC1', 'inactive'),
  ('CN1CCc2c(Sc3ccc(C(=O)NO)cc3)c3ccccc3n2C1', 'active'),
  ('COc1ccc(OC2=C(C#N)C(=N)N3c4ccccc4Sc4ccccc4C3N2)cc1 (configuration not stated)', 'inactive'),
  ('Cc1ccc2nc(NC(=O)CSC(=S)N3CCN(C)CC3)sc2c1', 'inactive'),
  ('COC(=O)c1c2c(c(C)[n+]([O-])c1C)C(=O)C=C(NCc1cccc(OC)c1)C2=O', 'active'),
  ('COc1ccc(/C=C2\CN(Cc3cn(CCCNc4ccnc5cc(Cl)ccc45)nn3)C/C(=C\c3ccc(OC)c(OC)c3)C2=O)cc1OC', 'active'),
  ('Cc1ccccc1-c1cc(-c2ccc(Br)s2)[nH]c(=O)c1C#N', 'inactive'),
  ('COc1ccc(-c2nc3sc(C)nn3c2-c2nc3cc(C)c(C)cc3[nH]2)cc1', 'inactive'),
  ('Cc1nc(NC(=O)COc2cccc(/C=C3\COc4ccccc4C3=O)c2)sc1C', 'active'),
  ('Nc1nc(N)c(N=Nc2c(Br)cc(S(N)(=O)=O)cc2Br)c(N)n1', 'inactive');
